Entries and their measured Molar absorption coefficient follow.
experiment: Evaluation of molar absorption coefficient (UV-vis); type: physicochemical; settings: deionized water, UV-vis spectrometer

Examples with their reported Molar absorption coefficient follow.
1. O=[N+]([O-])c1cc(N=Nc2c(O)ccc3ccccc23)c(O)c([N+](=O)[O-])c1 | 5,117
2. CC1=NN(c2ccccc2)C(O)C1N=Nc1cc([N+](=O)[O-])cc(S(=O)(=O)O)c1O (centres unmarked) | 33,579
3. Nc1ccc2c(O)c(N=Nc3ccc([N+](=O)[O-])cc3O)c(S(=O)(=O)O)cc2c1 | 44,000
4. O=[N+]([O-])c1cc(N=Nc2c(S(=O)(=O)O)cc3cc(Nc4ccccc4)ccc3c2O)c(O)c([N+](=O)[O-])c1 | 31,000
5. O=[N+]([O-])c1cc(N=Nc2c(S(=O)(=O)O)cc3cc(Nc4ccccc4)ccc3c2O)c(O)c(S(=O)(=O)O)c1 | 25,000
6. O=[N+]([O-])c1ccc(O)c(N=Nc2cc(S(=O)(=O)O)c3ccccc3c2O)c1 | 12,000

May I ask what Molar absorption coefficient has been recorded for O=[N+]([O-])c1cc(S(=O)(=O)O)cc(N=Nc2cc(S(=O)(=O)[O-])c3ccccc3c2O)c1O.[Na+] ?
23,000

May I ask what Molar absorption coefficient has been recorded for O=[N+]([O-])c1cc(N=Nc2c(O)cccc2O)c(O)c(S(=O)(=O)O)c1 ?
18,000
